Provide the recorded Burkin Assay in Myotubes (signal relative to DMSO) for the entries that follow.
tested on: α7 integrin (LacZ reporter in α7+/LacZ myotubes); assay: Myotube α7 integrin FDG assay (Burkin assay in myotubes, 96-well); assay type: cell-based, mouse; settings: 20 uM, myotubes

# annotated cases, reported Burkin Assay in Myotubes (signal relative to DMSO) shown
| COMPOUND | ASSAYED_SYSTEM | READING |
| --- | --- | --- |
| Cc1ccc(N(CCC(=O)O)S(=O)(=O)c2cccc(C(F)(F)F)c2)cc1 [MLS000775793-01] | α7 integrin (LacZ reporter in α7+/LacZ myotubes) | 0.9965 |
| CCc1ccc(Sc2cc(C(=O)NCCN3CCOCC3)c3ccccc3n2)cc1 [MLS000584511-01] | α7 integrin (LacZ reporter in α7+/LacZ myotubes) | 1.004 |
| CCOc1ccc2ccccc2c1C1NC(=O)N(C)C(C)=C1C(=O)OCCOC (stereo not shown) [MLS001167424-01] | α7 integrin (LacZ reporter in α7+/LacZ myotubes) | 1.0277 |

α7 integrin (LacZ reporter in α7+/LacZ myotubes) / Burkin Assay in Myotubes (signal relative to DMSO) / O=C(CSc1nnc(C2CC2)n1C1CC1)c1cccs1 [MLS002161757-01] : value? 0.9795

* * *

Provide the recorded Burkin Assay in Myoblasts, signal relative to DMSO for the entries that follow.
system: α7 integrin (LacZ reporter in α7βgal+/− myoblasts); assay: Myoblast α7+/LacZ integrin FDG assay (Burkin assay in myoblasts, 96-well); type: cell-based, mouse; settings: 0.5 uM; α7+/LacZ myoblasts, 96-well

# annotated cases, reported Burkin Assay in Myoblasts, signal relative to DMSO shown
| COMPOUND | READING |
| --- | --- |
| COc1ccc(NC(=O)c2cccc(N3C(=O)c4ccc(C(=O)Nc5ccc(OC)c(O)c5)cc4C3=O)c2)cc1O [MLS001124732-01] | 1.121 |
| Cc1nnc(SCC(=O)c2ccc(Br)cc2)s1 [MLS000420298-01] | 1.379 |
| N#Cc1ccccc1S(=O)(=O)N1CCN(C(=O)C2CCCCC2)CC1 [MLS002251986-01] | 1.046 |

Provide Burkin Assay in Myoblasts, signal relative to DMSO for all items below, preserving their order.
1. Cc1ccc(NCc2nnc(SCC(=O)Nc3nnc(C)s3)n2C)cc1 [MLS000688437-01]
2. CCOn1c(=O)c(-c2ccccc2)[n+]([O-])c2ccccc21 [MLS001197220-01]
3. O=C(Nc1ccccc1OC(=O)c1ccc(Cl)cc1)c1ccc(Cl)cc1 [MLS000573208-01]
4. Cc1cccc(Sc2nc(-c3ccccc3)ccc2C#N)c1 [MLS000325736-01]

1. 0.8901
2. 1.2811
3. 1.031
4. 0.7757

Provide Burkin Assay in Myoblasts, signal relative to DMSO for all items below, preserving their order.
1. CC(C)(C)c1ccc(C(=O)OCC(=O)Nc2sc3c(c2C#N)CCC3)cc1 [MLS000392555-01]
2. CC1CCN(C(CNS(=O)(=O)c2ccccc2)c2ccccc2)CC1 (stereo not shown) [MLS002171615-01]
3. CCOc1cc(C)c(S(=O)(=O)N2CCCCC2)cc1C [MLS000693795-01]
4. O=C(Nc1ccc(Oc2cccnc2)cc1)c1ccccc1Cl [MLS000574647-01]
5. Cc1cc([N+](=O)[O-])ccc1NC(=O)C(C)N1CCN(c2ccccn2)CC1 (stereo not shown) [MLS000764729-01]
6. COc1ccccc1CC(=O)Nc1cc(S(=O)(=O)N2CCOCC2)ccc1N1CCOCC1 [MLS002170630-01]

1: 1.2055; 2: 1.052; 3: 1.1137; 4: 1.081; 5: 1.088; 6: 1.122
